Molecular target: T1, human TREM2 (hTREM2) on cells (human, UniProt Q9NZC2 19-230)
T1 construct: also called hTREM2 expressing HEK293
T1 sequence: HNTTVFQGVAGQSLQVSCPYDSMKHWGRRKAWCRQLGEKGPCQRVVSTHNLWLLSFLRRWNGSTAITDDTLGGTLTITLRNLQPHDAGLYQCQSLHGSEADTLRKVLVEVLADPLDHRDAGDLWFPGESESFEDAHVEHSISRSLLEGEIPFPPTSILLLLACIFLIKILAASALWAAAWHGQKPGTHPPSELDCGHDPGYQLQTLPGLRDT
Assay: cell-based ELISA, hTREM2 vs WT 293HEK cells
Method: Cells were washed three times with PBS and blocked (5% FBS, 1% BSA in PBS) for 2 hrs at RT. Cells were washed with 1% BSA in PBS and were incubated with 0.1 ug (or indicated amount) obiotinylayed anti hTREM2 antibodies for 4 hrs at RT. After incubation, cells were incubated with streptavidin-HRP (DY998, R&D) for 20 min at RT. […] OD was measured using an ELISA plate reader at dual wavelengths (450 nm and 570 nm). […]
Catalogue of Cell based ELISA positive/negative readings, one per entry.

>  <binder>
60H4A3 (antibody, V domains shown, Biotin conjugated in sup ELISA, cell-based ELISA and flow cytometry) VH: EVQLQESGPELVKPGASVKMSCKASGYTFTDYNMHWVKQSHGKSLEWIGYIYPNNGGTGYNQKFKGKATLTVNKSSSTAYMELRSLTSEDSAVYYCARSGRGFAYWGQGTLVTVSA VL: DIVMTQSPASLSVTPGDRVSLSCRASQSISDYLHWYQQKSHESPRLLIKYASQSISGIPSRFSGSGSGSDFTLSINSVEPEDVGVYYCQNGHSFPYTFGGGTKLEIK

>  <Cell based ELISA positive/negative>
1.89 ratio

$$$$
>  <binder>
54H2C1 (antibody, V domains shown, Biotin conjugated in sup ELISA, cell-based ELISA and flow cytometry) VH: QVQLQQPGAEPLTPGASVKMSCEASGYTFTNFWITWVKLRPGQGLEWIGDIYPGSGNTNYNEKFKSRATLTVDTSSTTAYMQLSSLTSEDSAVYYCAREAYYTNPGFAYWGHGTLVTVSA VL: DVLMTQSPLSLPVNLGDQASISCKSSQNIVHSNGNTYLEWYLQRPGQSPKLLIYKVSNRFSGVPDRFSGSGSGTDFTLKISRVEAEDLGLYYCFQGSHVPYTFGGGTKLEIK

>  <Cell based ELISA positive/negative>
2.69 ratio

$$$$
>  <binder>
61B11C9 (antibody, V domains shown, Biotin conjugated in sup ELISA, cell-based ELISA and flow cytometry) VH: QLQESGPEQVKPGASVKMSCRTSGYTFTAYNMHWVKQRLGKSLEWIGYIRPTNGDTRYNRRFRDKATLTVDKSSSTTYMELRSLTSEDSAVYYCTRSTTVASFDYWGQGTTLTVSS VL: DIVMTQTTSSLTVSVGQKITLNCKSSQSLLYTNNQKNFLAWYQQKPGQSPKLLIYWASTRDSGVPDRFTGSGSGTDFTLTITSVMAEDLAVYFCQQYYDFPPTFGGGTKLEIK

>  <Cell based ELISA positive/negative>
2.46 ratio

$$$$
